Compound: C=CCn1c(Nc2cc(C(F)(F)F)ccc2C(F)(F)F)nc(C(F)(F)F)cc1=O [Compound No. 66]
melting point: 116 to 118 °C
//
Compound: CCn1c(Nc2ccc(C(F)(F)F)cc2C(F)(F)F)nc(C(F)(F)F)c(Cl)c1=O [Compound No. 34]
melting point: 124 °C
//
Compound: O=c1cc(C(F)(F)F)nc(Nc2cc(C(F)(F)F)ccc2C(F)(F)F)n1C1CCCCC1 [Compound No. 64]
melting point: 154 to 156 °C
//
Compound: CCC(C)n1c(Nc2cc(C(F)(F)F)ccc2C(F)(F)F)nc(C(F)(F)F)cc1=O (stereo not drawn) [Compound No. 58]
melting point: 165 to 167 °C
//
Compound: CCn1c(Nc2cc(Cl)ccc2Cl)nc(C(F)(F)F)cc1=O
melting point: 167 to 168 °C
//
Compound: CCC(C)n1c(Nc2cc(C(F)(F)F)ccc2C(F)(F)F)nc(C(F)(F)F)c(Cl)c1=O (stereo not drawn) [Compound No. 59]
melting point: 133 to 135 °C
//
Compound: CCn1c(Nc2cc(C(F)(F)F)ccc2C(F)(F)F)nc(C(F)(F)F)cc1=O [Compound No. 47]
melting point: 173 to 175 °C
//
Compound: O=c1c(Cl)c(C(F)(F)F)nc(Nc2cc(C(F)(F)F)ccc2C(F)(F)F)n1C1CCCCC1 [Compound No. 65]
melting point: 181 to 183 °C
//
Compound: CCCn1c(Nc2cc(C(F)(F)F)ccc2C(F)(F)F)nc(C(F)(F)F)c(Cl)c1=O [Compound No. 51]
melting point: 124 to 126 °C

Attribution: patent US6548511B1
